Where do the numbers come from? From patent US8415339B2.

# Tested on: MRSA 7268/02
# EXPERIMENT_NOTES: Agar diffusion (plate/disk) test, inhibition zone
# Assay type: cell-based, Staph. aureus
# ASSAY_SETUP: single antibiotic 30 μg per disk; 20 hrs at 37° C.
Let's look at some molecules and their measured Diameter of inhibition zone.
Put down the number, then write its unit next to it.

Ask: Please look up its Diameter of inhibition zone: `CO/N=C(\C(=O)N[C@@H]1C(=O)N2C(C(=O)O)=C(COC(N)=O)CS[C@H]12)c1ccco1`
Reply: 0 mm

----------
# Test system: MRSA 7268/02
# EXPERIMENT_NOTES: Agar diffusion (plate/disk) test, inhibition zone
# Type: cell-based, Staph. aureus
# ASSAY_SETUP: single antibiotic 30 μg per disk; 20 hrs at 37° C.
# Method: Inhibition zone diameters were determined on Difco Nutrient Agar (10 ml) in sterile dishes (8.5 cm) using ca. 10^6-10^7 colony forming units. 0.2 ml of a bacterial suspension (overnight culture in Difco Nutrient Broth) was mixed at 52° C. with the sterile liquid agar. It solidified at room temperature. Sterile filter disks (6 mm) were placed on the agar surface. […] The inhibition zone diameter was measured after 20 hrs at 37° C. […]
Let's look at some molecules and their measured Diameter of inhibition zone.
Quick note: give the figure in mm, leave out the unit.

MOLECULE	EXPERIMENTAL_SYSTEM	MEASUREMENT_UNITS	Diameter of inhibition zone
Cc1nnc(SCC2=C(C(=O)O)N3C(=O)[C@@H](NC(=O)Cn4cnnn4)[C@H]3SC2)s1 [Cefazolin]	MRSA 7268/02	mm	0

Read the next record carefully.
Ask: Give MRSA 7268/02 Diameter of inhibition zone for CO[C@@]1(NC(=O)Cc2cccs2)C(=O)N2C(C(=O)O)=C(COC(N)=O)CS[C@@H]21 [Cefoxitin]
Reply: 0

----------
Let's look at some compounds and their measured Diameter of inhibition zone.
# Test system: MRSA 7268/02
# EXPERIMENT_NOTES: Agar diffusion (plate/disk) test, inhibition zone
# Assay type: cell-based, Staph. aureus
# ASSAY_SETUP: single antibiotic 30 μg per disk; 20 hrs at 37° C.
Quick note: give the figure in mm, leave out the unit.

Take a look at these entries with their results.
STRUCTURE_SMILES	Diameter of inhibition zone [mm]
CCN1CCN(C(=O)N[C@@H](C(=O)N[C@@H]2C(=O)N3[C@@H]2SC(C)(C)[C@@H]3C(=O)O)c2ccccc2)C(=O)C1=O	0
CO/N=C(\C(=O)N[C@@H]1C(=O)N2C(C(=O)O)=C(CSc3nc(=O)c(=O)[nH]n3C)CS[C@H]12)c1csc(N)n1	0
CN[C@H](CC(C)C)C(=O)N[C@H]1C(=O)N[C@@H](CC(N)=O)C(=O)N[C@H]2C(=O)N[C@H]3C(=O)N[C@H](C(=O)N[C@H](C(=O)O)c4cc(O)cc(O)c4-c4cc3ccc4O)[C@H](O)c3ccc(c(Cl)c3)Oc3cc2cc(c3O[C@@H]2O[C@H](CO)[C@@H](O)[C@H](O)[C@H]2O[C@H]2C[C@](C)(N)[C@H](O)[C@H](C)O2)Oc2ccc(cc2Cl)[C@H]1O	19

Ask: Give MRSA 7268/02 Diameter of inhibition zone for `CO/N=C(\C(=O)N[C@@H]1C(=O)N2C(C(=O)O)=C(COC(C)=O)CS[C@H]12)c1csc(N)n1`
Reply: 0

----------
# Tested on: MRSA 7268/02
# EXPERIMENT_NOTES: Agar diffusion (plate/disk) test, inhibition zone
# Format: cell-based, Staph. aureus
# ASSAY_SETUP: single antibiotic 30 μg per disk; 20 hrs at 37° C.
# Experimental: Inhibition zone diameters were determined on Difco Nutrient Agar (10 ml) in sterile dishes (8.5 cm) using ca. 10^6-10^7 colony forming units. 0.2 ml of a bacterial suspension (overnight culture in Difco Nutrient Broth) was mixed at 52° C. with the sterile liquid agar. It solidified at room temperature. Sterile filter disks (6 mm) were placed on the agar surface. […] The inhibition zone diameter was measured after 20 hrs at 37° C. […]
Let's look at some compounds and their measured Diameter of inhibition zone.
Quick note: give the figure in mm, leave out the unit.

Take a look at these entries with their results.
STRUCTURE_SMILES	MEASUREMENT_UNITS	Diameter of inhibition zone
CC1(C)S[C@@H]2[C@H](NC(=O)[C@H](N)c3ccccc3)C(=O)N2[C@H]1C(=O)O	mm	12
Cc1onc(-c2c(Cl)cccc2Cl)c1C(=O)N[C@@H]1C(=O)N2[C@@H]1SC(C)(C)[C@@H]2C(=O)O	mm	0
CCN1CCN(C(=O)N[C@@H](C(=O)N[C@@H]2C(=O)N3C(C(=O)O)=C(CSc4nnnn4C)CS[C@H]23)c2ccc(O)cc2)C(=O)C1=O	mm	9

Ask: Please look up its Diameter of inhibition zone: `CC(=O)OCC1=C(C(=O)O)N2C(=O)[C@@H](NC(=O)Cc3cccs3)[C@H]2SC1`
Reply: 0

Ask: Please look up its Diameter of inhibition zone: `N[C@@H](C(=O)N[C@@H]1C(=O)N2C(C(=O)O)=C(Cl)CS[C@H]12)c1ccccc1`
Reply: 11
